biological target: DP9 (Homo sapiens); assay: DP9 assay; assay type: biochemical; conditions: ratio IC50 DP9 / Ki DP IV
Sequence (Q86TI2 whole entry, species assumed): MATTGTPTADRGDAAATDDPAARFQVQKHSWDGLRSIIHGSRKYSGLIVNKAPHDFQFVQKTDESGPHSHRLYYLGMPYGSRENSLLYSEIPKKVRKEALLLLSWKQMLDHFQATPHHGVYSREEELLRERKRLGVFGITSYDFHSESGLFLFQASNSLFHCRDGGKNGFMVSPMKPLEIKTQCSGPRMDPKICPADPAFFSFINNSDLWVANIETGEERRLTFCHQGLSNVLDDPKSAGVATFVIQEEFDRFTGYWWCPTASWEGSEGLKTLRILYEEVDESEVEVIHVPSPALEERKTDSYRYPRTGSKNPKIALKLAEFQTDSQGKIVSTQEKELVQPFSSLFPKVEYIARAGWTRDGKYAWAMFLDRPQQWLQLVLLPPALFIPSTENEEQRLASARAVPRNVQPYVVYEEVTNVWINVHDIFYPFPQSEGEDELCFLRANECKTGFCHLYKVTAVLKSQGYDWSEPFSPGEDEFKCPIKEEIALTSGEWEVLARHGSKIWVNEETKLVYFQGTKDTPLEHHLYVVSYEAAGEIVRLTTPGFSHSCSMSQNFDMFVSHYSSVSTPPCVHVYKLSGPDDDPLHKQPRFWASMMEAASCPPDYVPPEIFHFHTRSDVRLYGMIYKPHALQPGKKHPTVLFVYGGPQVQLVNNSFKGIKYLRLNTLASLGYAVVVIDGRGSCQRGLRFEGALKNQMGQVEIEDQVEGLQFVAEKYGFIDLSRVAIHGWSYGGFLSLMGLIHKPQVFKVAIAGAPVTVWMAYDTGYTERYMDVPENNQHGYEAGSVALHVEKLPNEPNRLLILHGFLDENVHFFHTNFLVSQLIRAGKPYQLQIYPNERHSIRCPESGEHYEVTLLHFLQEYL
readoutKind: Selectivity DP9(IC50)/DPIV(Ki)

• NCc1c(-c2ccc(Cl)cc2Cl)ncn1C(CO)c1ccccc1 (stereo not shown) [Example 126b] = 6,670
• NCc1c(-c2ccc(Cl)cc2Cl)ncn1Cc1ccc2c(c1)OCO2 [Example 125b] = 1,966
• NCc1c(-c2ccc(Cl)cc2Cl)ncn1CCCn1ccnc1 [Example 104b] = 579
• COc1ccccc1Cn1cnc(-c2ccc(Cl)cc2Cl)c1CN [Example 120b] = 3,778
• NCc1c(-c2ccc(Cl)cc2Cl)ncn1Cc1cccnc1 [Example 121b] = 34,797
• CCOc1ccccc1Cn1cnc(-c2ccc(Cl)cc2Cl)c1CN [Example 128b] = 5,419
• NCc1c(-c2ccc(Cl)cc2Cl)ncn1CCCCCO [Example 38b] = 1,131
• NCc1c(-c2ccc(Cl)cc2Cl)ncn1Cc1ccccc1Cl [Example 81b] = 1,964
• NCc1c(-c2ccc(Cl)cc2Cl)ncn1Cc1ccsc1 [Example 130b] = 12,653
• NCc1c(-c2ccc(Cl)cc2Cl)ncn1Cc1ccccc1 [Example 24b] = 25,527
